Attribution: patent US8404691B2

experiment: Metabolic stability test (microsomal metabolism); format: in vitro ADME; conditions: human liver microsomes, 37° C., 30 minutes after addition of NADP+; further: tested at 1.1 µM
QUANTITY: MS (human) % (metabolic stability, residual percentage of compound) (%)

These solved cases illustrate the format of a correct answer.
CC(C)C1=C(C(=O)N2C[C@H](F)C[C@H]2C(=O)N2CC3(CC3)NC[C@@H]2CO)SC2=N[C@@](C)(c3ccc(Cl)nc3)[C@@H](c3ccc(Cl)c(F)c3)N21 | 100
CC(C)C1=C(C(=O)N2C[C@H](F)C[C@H]2C(=O)N2CCNC3(CC3)C2)SC2=N[C@@](C)(c3ccc(Cl)nc3)[C@@H](c3ccc(Cl)cc3)N21 | 57
CC(C)C1=C(C(=O)N2C[C@H](F)C[C@H]2C(=O)N2CC3(CC3)NC[C@@H]2C)SC2=N[C@@](C)(c3ccc(Cl)nc3)[C@@H](c3ccc(Cl)cc3)N21 | 91
CC(C)C1=C(C(=O)N2C[C@H](F)C[C@H]2C(=O)N2CC3(CC3)NC[C@@H]2C)SC2=N[C@@](C)(c3ccc(Cl)nc3)[C@@H](c3ccc(Cl)c(F)c3)N21 | 100
CC(C)C1=C(C(=O)N2C[C@H](F)C[C@H]2C(=O)N2CC3(CC3)NC[C@@H]2C)SC2=N[C@@](C)(c3ccc(Cl)cc3)[C@@H](c3ccc(Cl)cc3)N21 | 93
CC(C)C1=C(C(=O)N2C[C@H](F)C[C@H]2C(=O)N2CC3(CC3)NC[C@H]2C)SC2=N[C@@](C)(c3ccc(Cl)nc3)[C@@H](c3ccc(Cl)c(F)c3)N21 | 68
CC(C)C1=C(C(=O)N2C[C@H](F)C[C@H]2C(=O)N2CC3(CC3)NC[C@H]2C)SC2=N[C@@](C)(c3ccc(Cl)cc3)[C@@H](c3ccc(Cl)cc3)N21 | 36

I = CC(C)C1=C(C(=O)N2C[C@H](F)C[C@H]2C(=O)N2CCNC3(CC3)C2)SC2=N[C@@](C)(c3ccc(Cl)cc3)[C@@H](c3ccc(Cl)cc3)N21
II = CC(C)C1=C(C(=O)N2CC(F)(F)C[C@H]2C(=O)N2CC3(CC3)NC[C@H]2C)SC2=N[C@@](C)(c3ccc(Cl)nc3)[C@@H](c3ccc(Cl)c(F)c3)N21
III = CC(C)C1=C(C(=O)N2C[C@H](F)C[C@H]2C(=O)N2CCNC3(CC3)C2)SC2=N[C@@](C)(c3ccc(Cl)cc3)[C@@H](c3ccc(Cl)c(F)c3)N21
Exercise: Please list the entries, largest MS (human) % (metabolic stability, residual percentage of compound) first. In plain terms: list the labels in the order you were asked to.
Key: II, III, I
(II: 48%, III: 24%, I: 6%)
